B1: INTS3 (parent)
chain: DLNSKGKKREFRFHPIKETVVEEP

Variants of: B1
ASSAY_NAME: protein stability index of a GFP-peptide fusion (GPS, HEK-293T) (PSI 1-6); higher = more stable;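 note: lentivirally expressed fusions sorted by FACS into six bins by GFP to DsRed ratio, PSI derived from sequencing read proportions per bin multiplied by bin number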
DETAILS: c terminus: a fixed tail appended
Can you tell me protein stability index for the items I'm about to list?
Numbers only.

In the examples that follow, each entry is paired with its recorded protein stability index.
INSERT INTO results (mutant, property_name, readout_value) VALUES
  ('G6Q', 'protein stability index', 2.3),
  ('E18T', 'protein stability index', 2.7),
  ('E18K', 'protein stability index', 1.79),
  ('F11C', 'protein stability index', 4.47),
  ('V20H', 'protein stability index', 2.6);

Hi, could you look up protein stability index for each item in my list?
1. E23Q
2. I16Q

[2.35, 2.34]

Hi, could you look up protein stability index for each item in my list?
1. K17E
2. T19Q
3. K17D
4. G6D

[3.48, 1.96, 3.93, 2.29]
